Protocol Description: physchem
Stated Conditions: 25 °C, pH 4.8, water, thermodynamic from solid
Counter-ions that a name gives are not always drawn.
Endpoint Name: solubility (µg/mL)
Entry rule: numbers only, all in µg/mL.

Q: Any idea what its solubility is? The molecule is COc1ccc(/C=C\c2cc(OC)c(OC)c(OC)c2)cc1OP(=O)(O)O [CA4P mono TRIS salt, CA4P mono-tromethamine salt]
Result: 3370

Just for reference, patent US7524832B2 is where these values come from.
